Target: Growth hormone secretagogue receptor type 1 (Homo sapiens, UniProt Q92847)
Sequence (Q92847 whole entry): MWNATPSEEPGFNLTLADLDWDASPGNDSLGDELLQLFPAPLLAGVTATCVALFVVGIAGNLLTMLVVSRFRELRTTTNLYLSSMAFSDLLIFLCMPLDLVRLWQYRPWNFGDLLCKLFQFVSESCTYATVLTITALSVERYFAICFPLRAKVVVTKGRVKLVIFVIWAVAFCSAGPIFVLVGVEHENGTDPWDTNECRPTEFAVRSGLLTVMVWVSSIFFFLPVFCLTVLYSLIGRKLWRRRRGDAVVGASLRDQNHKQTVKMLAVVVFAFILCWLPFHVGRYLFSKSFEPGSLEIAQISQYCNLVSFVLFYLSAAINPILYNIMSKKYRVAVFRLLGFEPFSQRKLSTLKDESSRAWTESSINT
Experiment: Displacement of [125I-His9]-ghrelin from human GRLN receptor by radioligand binding assay
Parameter: log10(Ki). Scope: all listed entries.
// stored as log10 of Ki expressed in nM

Worked cases, log10(Ki) given:
CC[C@H](C)[C@@H]1NCCCc2ccccc2CCNC(=O)[C@@H](Cc2ccccc2)NC(=O)[C@@H](C)N(C)C1=O: 2.60
C[C@@H]1C(=O)N[C@H](Cc2ccccc2F)C(=O)NCCCc2ccccc2OCCN[C@@H](C2CC2)C(=O)N1C: 0.79
CCC[C@@H]1NCCOc2ccccc2CCCNC(=O)[C@@H](Cc2ccccc2)NC(=O)CN(C)C1=O: 1.83
C[C@@H]1C(=O)N[C@H](Cc2ccc(C(F)(F)F)cc2)C(=O)NCCCc2ccccc2OCCN[C@@H](C2CC2)C(=O)N1C: 0.85

[ask] For CCC[C@@H]1NCCOc2ccccc2CCCNC(=O)[C@H](Cc2ccccc2)NC(=O)CN(C)C1=O , what is its reported log10(Ki)?
[reply] 2.58

---

Target: Growth hormone secretagogue receptor type 1 (Homo sapiens, UniProt Q92847)
Experiment: Agonist activity at human GRLN receptor expressed in HEK293 cells assessed as calcium binding by Ca2+ bioluminescence aequorin assay
Property: pEC50
Remember, pEC50 is on a log scale: it is -log10 of the molar concentration.

Worked cases, pEC50 given:
C[C@@H]1CN[C@@H](C2CCCCC2)C(=O)N(C)[C@H](C)C(=O)N[C@H](Cc2ccc(F)cc2)C(=O)NCCCc2ccccc2O1: 7.31
CCC[C@@H]1NCCOc2ccccc2CCCNC(=O)[C@@H](Cc2ccccc2)NC(=O)[C@@H](C)N(C)C1=O: 7.40
CC[C@H](C)[C@@H]1NCCCc2ccccc2CCCCNC(=O)[C@@H](Cc2ccccc2)NC(=O)[C@@H](C)N(C)C1=O: 6.44
C[C@@H]1C(=O)N[C@H](Cc2ccc(F)cc2)C(=O)NCCCc2ccc(F)cc2OCCN[C@@H](C2CC2)C(=O)N1C: 7.57
C[C@@H]1C(=O)N[C@H](Cc2ccccc2)C(=O)NCCCc2ccccc2OCCN[C@@H](C2CC2)C(=O)N1C: 7.64
CC1COc2ccccc2CCCNC(=O)[C@@H](Cc2ccc(F)cc2)NC(=O)[C@@H](C)N(C)C(=O)[C@H](C2CC2)N1 (mixture of isomers): 6.12

# context switch: different compound, same pEC50
[ask] For C[C@@H]1CN[C@@H](C2CC2)C(=O)N(C)[C@H](C)C(=O)N[C@H](Cc2ccc(Cl)cc2)C(=O)NCCCc2ccccc2O1 , what is its reported pEC50?
[reply] 7.74

---

Test: Clearance in Sprague-Dawley rat at 2 m/kg, iv
Assay type: ADME, organism-based
Settings: in vivo
Property: clearance (mL/min/kg)
Give just the numeric value; mL/min/kg need not be written.

Worked cases, clearance given:
CCC[C@@H]1NC[C@@H](C)Oc2ccccc2CCCNC(=O)[C@@H](Cc2ccc(F)cc2)NC(=O)[C@@H](C)N(C)C1=O: 41
C[C@@H]1C(=O)N[C@H](Cc2ccc(F)cc2)C(=O)NCCCc2ccc(F)cc2OCCN[C@@H](C2CC2)C(=O)N1C: 28

# context switch: different compound, same clearance
[ask] For C[C@@H]1C(=O)N[C@H](Cc2ccc(F)cc2)C(=O)NCCCc2cccc3c2O[C@H](CC3)CN[C@@H](C2CC2)C(=O)N1C , what is its reported clearance?
[reply] 13
